Experiment: Plasma pharmacokinetics in pig (release of R-100 from R-107), LCMS
Type: in vivo
Conditions: plasma, IV neat R-107 88 mg/kg over 6 minutes, 0.25 hrs post dose
property measured: concentration at 0.25 h (ng/mL)
Numeric answer only, unit ng/mL assumed.

Entry CC(=O)ON1C(C)(C)CC(CO[N+](=O)[O-])C1(C)C (stereo not shown) , concentration at 0.25 h reported as 3430

---

Assay: Plasma pharmacokinetics in pig (release of R-100 from R-107), LCMS
Format: in vivo
Conditions: plasma, IV R-107 diluted in 4 parts of PEG400, 18 mg/kg over 6 minutes, 0.17 hrs post dose
property measured: concentration at 0.17 h (ng/mL)
Give just the number in ng/mL; leave the unit off.

Item: CC(=O)ON1C(C)(C)CC(CO[N+](=O)[O-])C1(C)C (stereo not shown) [R-107] | concentration at 0.17 h: 640
